Where do these numbers come from? They come from ChEMBL document CHEMBL1961873.

- measured target: Ephrin type-B receptor 2 (Homo sapiens);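 further: reported as mean inhibition of EPHB2, from the GSK PKIS dataset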
- conditions: at 0.1 µM
outcome measure: inhibition (%)
Could you give me the number in %? Just the number is fine.

See these solved cases before continuing.
# molecule, result value
measured = [
    ("Cc1ccc2c(-c3ccnc(Nc4ccc5c(c4)OCCO5)n3)c(-c3ccc(C(F)(F)F)cc3)nn2n1", -7.93),
    ("C[C@@H](Oc1cc(-n2cnc3ccc(OC[C@@H](O)CO)cc32)sc1C(N)=O)c1ccccc1Cl", -0.2),
    ("C[C@@H](Oc1cc(-n2cnc3ccc(OCC4CCN(C)CC4)cc32)sc1C(N)=O)c1ccccc1C(F)(F)F", -9.54),
    ("CCOc1nccc2c1nc(-c1nonc1N)n2CC", 9.96),
    ("Cc1cc(Cl)cc2c1NC(=O)C2=NNc1ccc(S(N)(=O)=O)cc1", 4.48),
    ("CN(C)c1cc2c(Nc3ccc4c(cnn4Cc4ccccc4)c3)ncnc2cn1", 2.52),
    ("CN1CCN(C(=O)c2ccc(NC(=O)Nc3ccc(N(C)c4ccnc(Nc5ccc(CS(C)(=O)=O)cc5)n4)cc3)cc2)CC1", 8.44),
    ("Cc1ccc2c(c1)/C(=N/Nc1ccc(S(N)(=O)=O)cc1)C(=O)N2", -2.4),
    ("Nc1ccc(C#Cc2cncnc2Nc2ccc(OCc3cccc(F)c3)c(Cl)c2)cc1", 1.34),
    ("c1ccc(Cc2nc3ccc(Nc4ncnc5ccccc45)cc3[nH]2)cc1", 8.45),
]

*Q* State its inhibition on Ephrin type-B receptor 2 (Homo sapiens): O=C1Nc2ccc(-c3cccnc3)cc2C1=Cc1cc(Br)c(O)c(Br)c1
*A* 7.83

*Q* Param item: COc1cc2ncnc(Nc3ccc4c(cnn4Cc4ccccc4)c3)c2cc1OC
*A* 4.85
